System Name: T1, 4H478-AA
T1 chain: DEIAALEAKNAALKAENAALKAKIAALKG
Protocol Description: two-hybrid library CCmax;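 also: natural log of median RNA to DNA barcode read ratio; higher means stronger binding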
Details: mean of both orientations
We begin with a simple list: items and their reported interaction score.
Reply: number alone, nothing else.

{"Binder": "DKIAALKAKNAALEAKIAALKAKNAALEG [4H2991-AA]", "Endpoint Name": "interaction score", "Test Value": -1.87}
{"Binder": "DKNAALKAEIAALKAKNAALKAKIAALEG [4H3709-AA]", "Endpoint Name": "interaction score", "Test Value": -0.647}
{"Binder": "DKIAALKAENAALEAKNAALEAKIAALKG [4H2742-AA]", "Endpoint Name": "interaction score", "Test Value": 1.12}

query: Any idea what interaction score was measured for DKNAALEAEIAALEAENAALKAKIAALKG [4H3102-AA] ?
result: 1.81

Data provenance: paper PMC10397247
